# Test system: M14 melanoma
# procedure.text: NCI tumour cell line growth inhibition, 48 h
measurement.label: GI50

- O=C(Nc1cc(Cl)cc(Cl)c1)c1ccc(NC2=C(Cl)C(=O)N(Cc3ccc(Cl)cc3Cl)C2=O)cc1: 10.1 µM
- Ic1ccccc1-c1ccccc1: > 100 µM
- O=c1ccc2nc(-c3ccccc3)nn(-c3ccccn3)c-2c1: 16.7 µM

###

# Test system: SN12C renal
# procedure.text: NCI tumour cell line growth inhibition, 48 h; in the data active = GI50 below about 0.43 µM; inactive = the rest
Possible outcomes: 1 (yes) = active, 0 (no) = inactive

* COc1cc2cc(Oc3ccc(NC(=O)Nc4cccc(C(F)(F)F)c4)cc3)c(C)nc2cc1OC | 0 (no)
* Fc1ccc2c(c1)c(-c1nc(-c3c[nH]c4ncccc34)cs1)cn2CCCN1CCCCC1 | 0 (no)
* COc1cc2c3c(n(CCCN)c(=O)c2cc1OC)-c1cc2c(cc1/C3=C\CCN)OCO2 | 1 (yes)
